biological target: Aromatase (Homo sapiens, UniProt P11511)
Sequence (P11511 whole entry): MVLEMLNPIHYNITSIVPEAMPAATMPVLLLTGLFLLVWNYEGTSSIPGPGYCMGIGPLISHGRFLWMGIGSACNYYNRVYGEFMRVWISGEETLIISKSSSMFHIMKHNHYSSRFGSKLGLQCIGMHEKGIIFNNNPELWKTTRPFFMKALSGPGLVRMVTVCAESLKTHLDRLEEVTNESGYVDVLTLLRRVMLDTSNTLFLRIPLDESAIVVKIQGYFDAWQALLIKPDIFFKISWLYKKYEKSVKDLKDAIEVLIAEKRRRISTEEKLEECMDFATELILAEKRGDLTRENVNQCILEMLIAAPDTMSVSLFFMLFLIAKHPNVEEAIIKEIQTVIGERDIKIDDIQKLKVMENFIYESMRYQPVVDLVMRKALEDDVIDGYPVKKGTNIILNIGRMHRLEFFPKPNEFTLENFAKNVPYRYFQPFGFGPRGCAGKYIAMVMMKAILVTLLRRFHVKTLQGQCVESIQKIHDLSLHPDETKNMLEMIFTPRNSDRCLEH
Doc: threshold 10 nM (exclusive). Items with Ki beneath it return Criterion met; others return Criterion not met.

| compound | assay-target | class-label |
| --- | --- | --- |
| C[C@]12CCC3C(CCC4=CC(=O)CC[C@]43C3CS3)C1CCC2=O (some centres not stated) | Aromatase (Homo sapiens, UniProt P11511) | Criterion met |
| C[C@]12CCC(=O)C=C1[C@H](Br)CC1C2CC[C@@]2(C)C1CC[C@@H]2OC(=O)CBr (some centres not stated) | Aromatase (Homo sapiens, UniProt P11511) | Criterion not met |
| C/C=C/[C@]12CCC(=O)C=C1CCC1C2CC[C@]2(C)C(=O)CCC12 (some centres not stated) | Aromatase (Homo sapiens, UniProt P11511) | Criterion not met |
| C[C@]12CCC(=O)C=C1C[C@@H](Sc1ccc(NC(=O)CBr)cc1)C1C2CC[C@]2(C)C(=O)CCC12 (some centres not stated) | Aromatase (Homo sapiens, UniProt P11511) | Criterion not met |
| C[C@]12C=CC(=O)C=C1C=C[C@@H]1[C@@H]2CC[C@]2(C)C(=O)CC[C@@H]12 | Aromatase (Homo sapiens, UniProt P11511) | Criterion not met |
| C[C@]12CCC(=O)C(N)=C1CCC1C2CC[C@]2(C)C(=O)CCC12 (some centres not stated) | Aromatase (Homo sapiens, UniProt P11511) | Criterion not met |
| C=C[C@]12CCC(=O)C=C1CCC1C2CC[C@]2(C)C(=O)CCC12 (some centres not stated) | Aromatase (Homo sapiens, UniProt P11511) | Criterion met |
| C[C@]12CCC(=O)C=C1C[C@@H](Sc1ccc(I)cc1)C1C2CC[C@]2(C)C(=O)CCC12 (some centres not stated) | Aromatase (Homo sapiens, UniProt P11511) | Criterion not met |
| C=C1C=C2CCC3C(CC[C@]4(C)C(=O)CCC34)[C@@]2(C)CC1 (some centres not stated) | Aromatase (Homo sapiens, UniProt P11511) | Criterion met |
| C[C@]12CCC3C(CCC4=CC(=O)CC[C@@]43C3CS3)C1CCC2=O (some centres not stated) | Aromatase (Homo sapiens, UniProt P11511) | Criterion not met |
| CC1(C)C[C@@]2(C)C(=CC1=O)CCC1C2CC[C@]2(C)C(=O)CCC12 (some centres not stated) | Aromatase (Homo sapiens, UniProt P11511) | Criterion met |
| CSC[C@]12CCC(=O)C=C1CCC1C2CC[C@]2(C)C(=O)CCC12 (some centres not stated) | Aromatase (Homo sapiens, UniProt P11511) | Criterion met |
| C[C@]12C=CC(=O)C=C1CCC1C2CC[C@]2(C)OC(=O)CCC12 (some centres not stated) | Aromatase (Homo sapiens, UniProt P11511) | Criterion not met |
| C[C@]12CCC3C(CCC4=CC(=O)CC[C@@]43C(F)F)C1CCC2=O (some centres not stated) | Aromatase (Homo sapiens, UniProt P11511) | Criterion met |
| CC[C@]12CCC(=O)C=C1CCC1C2CC[C@]2(C)C(=O)CCC12 (some centres not stated) | Aromatase (Homo sapiens, UniProt P11511) | Criterion met |
| C[C@]12CCC(=O)C(O)=C1CC[C@@H]1[C@@H]2CC[C@]2(C)C(=O)CC[C@@H]12 [FORMESTANE] | Aromatase (Homo sapiens, UniProt P11511) | Criterion not met |
| CCC[C@]12CCC(=O)C=C1CCC1C2CC[C@]2(C)C(=O)CCC12 (some centres not stated) | Aromatase (Homo sapiens, UniProt P11511) | Criterion not met |
